Tested on: MCF7 cells
Assay: Cell viability (AlamarBlue), MCF7 breast cancer cells
Assay type: cell-based
Settings: Homo sapiens, 72 hours of treatment
Items are presented alongside their recorded EC50.

- Molecule: "COC1CC(C(=O)NC(=O)Nc2ccc(Oc3ncc(C)s3)c(C)c2)C1 (stereo not drawn)"
  Target entity: "MCF7 cells"
  EC50 (µM): 0.6
- Molecule: "COC1CC(C(=O)NC(=O)Nc2ccc(Oc3ncc(Cl)cn3)c(C)c2)C1 (single isomer, unassigned) [Compound 20A]"
  Target entity: "MCF7 cells"
  EC50 (µM): 5.8
- Molecule: "COC1CC(C(=O)NC(=O)Nc2ccc(Oc3ccc(F)cn3)c(C)c2)C1 (single isomer, unassigned) [Compound 15A]"
  Target entity: "MCF7 cells"
  EC50 (µM): 11.5
- Molecule: "Cc1cc(NC(=O)NC(=O)C2CCCCC2)ccc1Oc1ncc(Cl)cn1"
  Target entity: "MCF7 cells"
  EC50 (µM): 9.4
- Molecule: "COC1CC(C(=O)NC(=O)Nc2ccc(Oc3ccc(Cl)cn3)c(C)c2)C1 (single isomer, unassigned) [Compound 19A]"
  Target entity: "MCF7 cells"
  EC50 (µM): 2.8
- Molecule: "COC1CCC(C(=O)NC(=O)Nc2ccc(Oc3ncccn3)c(F)c2)CC1 (stereo not drawn)"
  Target entity: "MCF7 cells"
  EC50 (µM): 11.3
- Molecule: "COC1CCC(C(=O)NC(=O)Nc2ccc(Oc3ccc(Cl)cn3)c(C)c2)CC1 (stereo not drawn)"
  Target entity: "MCF7 cells"
  EC50 (µM): 2.4
- Molecule: "COC1CCC(C(=O)NC(=O)Nc2ccc(Oc3ccc(F)cn3)c(C)c2)CC1 (stereo not drawn)"
  Target entity: "MCF7 cells"
  EC50 (µM): 8.5
- Molecule: "COC1CC(C(=O)NC(=O)Nc2ccc(Oc3cnc(N4CCOCC4)nc3)c(C)c2)C1 (stereo not drawn)"
  Target entity: "MCF7 cells"
  EC50 (µM): 2.5
- Molecule: "Cc1cc(NC(=O)NC(=O)C2COC2)ccc1Oc1ncc(Cl)cn1"
  Target entity: "MCF7 cells"
  EC50 (µM): 20.9
- Molecule: "COC1CC(C(=O)NC(=O)Nc2ccc(Oc3ccc(C#N)cn3)c(C)c2)C1 (single isomer, unassigned) [Compound 16A]"
  Target entity: "MCF7 cells"
  EC50 (µM): 12.7
- Molecule: "COC1CCC(C(=O)NC(=O)Nc2ccc(Oc3ncc(Cl)cn3)c(C)c2)CC1 (stereo not drawn)"
  Target entity: "MCF7 cells"
  EC50 (µM): 3.4
- Molecule: "COC1CCC(C(=O)NC(=O)Nc2ccc(Oc3ccc(Cl)cn3)c(F)c2)CC1 (stereo not drawn)"
  Target entity: "MCF7 cells"
  EC50 (µM): 1.9
- Molecule: "COC1CCC(C(=O)NC(=O)Nc2ccc(Oc3ncc(F)cn3)c(C)c2)CC1 (stereo not drawn)"
  Target entity: "MCF7 cells"
  EC50 (µM): 24.3
- Molecule: "COC1CCC(C(=O)NC(=O)Nc2ccc(Oc3ncccn3)c(C)c2)CC1 (stereo not drawn)"
  Target entity: "MCF7 cells"
  EC50 (µM): 12.9
